test system: S. cerevisiae Yfh1-off respiration, WST-1 reduction, 72 h; assay: mitochondrial function rescue without frataxin homolog – Friedreich's ataxia, plus single-dose screen, dose response (AID 1465);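 further: activators that raise dye reduction in frataxin-depleted yeast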
Please respond with reported pEC50 for every item in the list.
Kindly note that pEC50 refers to -log10 of the concentration in mol/L and answer with the value alone.

[Q] Note down pEC50 recorded for CCC(=O)NC(c1cccs1)c1cc([N+](=O)[O-])c2cccnc2c1O (stereo not drawn)
[A] 4.46

[Q] Provide one value: measured pEC50 of CCN1CCS/C1=C\C=C\C1=[N+](CC)CCS1
[A] 4.27

[Q] Consider the compound O=C1C=C(NCc2ccccc2)c2ccccc2C1=O and give its recorded pEC50.
[A] 4.44
